- target-system: Kappa-type opioid receptor (Cavia porcellus)
- experiment-description: Hill coefficient value was measured against Opioid receptor kappa 1 in guinea pig cerebellum membrane homogenates
- Format: cell membranes
observable: Hill coefficient

CC(C)C[C@H](NC(=O)[C@H](Cc1ccccc1)NC(=O)[C@@H](Cc1c[nH]c2ccccc12)NC(=O)CNC(=O)[C@@H](N)Cc1ccc(O)cc1)C(=O)N[C@@H](CCCN=C(N)N)C(=O)N[C@@H](CCCN=C(N)N)C(=O)N[C@H](Cc1c[nH]c2ccccc12)C(=O)N[C@@H](CCCN=C(N)N)C(=O)N1CCC[C@@H]1C(=O)N[C@@H](CCCCN)C(=O)O :: 1.03
CC[C@H](C)[C@H](NC(=O)[C@H](CCCN=C(N)N)NC(=O)[C@H](CCCN=C(N)N)NC(=O)[C@H](CC(C)C)NC(=O)[C@H](Cc1ccccc1)NC(=O)CNC(=O)CNC(=O)[C@@H](N)Cc1ccc(O)cc1)C(=O)N[C@@H](CCCN=C(N)N)C(=O)N1CCC[C@H]1C(=O)N[C@@H](CCCCN)C(=O)N[C@@H](CC(C)C)C(=O)N[C@@H](CCCCN)C(=O)N[C@@H](Cc1c[nH]c2ccccc12)C(=O)N[C@@H](CC(=O)O)C(=O)N[C@@H](CC(N)=O)C(=O)N[C@@H](CCC(=O)O)C(=O)O :: 0.79
NCCCC[C@H](NC(=O)[C@H]1CCCN1C(=O)[C@H](CCCN=C(N)N)NC(=O)[C@@H](Cc1c[nH]c2ccccc12)NC(=O)[C@H](CCCN=C(N)N)NC(=O)[C@H](CCCN=C(N)N)NC(=O)[C@@H](Cc1c[nH]c2ccccc12)NC(=O)[C@H](Cc1ccccc1)NC(=O)CNC(=O)CNC(=O)[C@@H](N)Cc1ccc(O)cc1)C(=O)O :: 0.96
CC(C)C[C@H](NC(=O)[C@H](Cc1ccccc1)NC(=O)CNC(=O)CNC(=O)[C@@H](N)Cc1ccc(O)cc1)C(=O)N[C@@H](CCCN=C(N)N)C(=O)N[C@@H](CCCN=C(N)N)C(=O)N[C@H](Cc1c[nH]c2ccccc12)C(=O)N[C@@H](CCCN=C(N)N)C(=O)N1CCC[C@@H]1C(=O)N[C@@H](CCCCN)C(=O)O :: 1
CC(C)C[C@H](NC(=O)[C@@H](Cc1c[nH]c2ccccc12)NC(=O)CNC(=O)CNC(=O)[C@@H](N)Cc1ccc(O)cc1)C(=O)N[C@@H](CCCN=C(N)N)C(=O)N[C@@H](CCCN=C(N)N)C(=O)N[C@H](Cc1c[nH]c2ccccc12)C(=O)N[C@@H](CCCN=C(N)N)C(=O)N1CCC[C@@H]1C(=O)N[C@@H](CCCCN)C(=O)O :: 0.85
CC(C)C[C@H](NC(=O)[C@H](Cc1ccccc1)NC(=O)CNC(=O)[C@@H](Cc1c[nH]c2ccccc12)NC(=O)[C@@H](N)Cc1ccc(O)cc1)C(=O)N[C@@H](CCCN=C(N)N)C(=O)N[C@@H](CCCN=C(N)N)C(=O)N[C@H](Cc1c[nH]c2ccccc12)C(=O)N[C@@H](CCCN=C(N)N)C(=O)N1CCC[C@@H]1C(=O)N[C@@H](CCCCN)C(=O)O :: 0.83
CC(C)C[C@H](NC(=O)[C@@H](Cc1c[nH]c2ccccc12)NC(=O)CNC(=O)[C@@H](Cc1c[nH]c2ccccc12)NC(=O)[C@@H](N)Cc1ccc(O)cc1)C(=O)N[C@@H](CCCN=C(N)N)C(=O)N[C@@H](CCCN=C(N)N)C(=O)N[C@H](Cc1c[nH]c2ccccc12)C(=O)N[C@@H](CCCN=C(N)N)C(=O)N1CCC[C@@H]1C(=O)N[C@@H](CCCCN)C(=O)O :: 0.85

---

Notes on pKi obtained with Mu-type opioid receptor (Rattus norvegicus).
Sequence (P33535 whole entry): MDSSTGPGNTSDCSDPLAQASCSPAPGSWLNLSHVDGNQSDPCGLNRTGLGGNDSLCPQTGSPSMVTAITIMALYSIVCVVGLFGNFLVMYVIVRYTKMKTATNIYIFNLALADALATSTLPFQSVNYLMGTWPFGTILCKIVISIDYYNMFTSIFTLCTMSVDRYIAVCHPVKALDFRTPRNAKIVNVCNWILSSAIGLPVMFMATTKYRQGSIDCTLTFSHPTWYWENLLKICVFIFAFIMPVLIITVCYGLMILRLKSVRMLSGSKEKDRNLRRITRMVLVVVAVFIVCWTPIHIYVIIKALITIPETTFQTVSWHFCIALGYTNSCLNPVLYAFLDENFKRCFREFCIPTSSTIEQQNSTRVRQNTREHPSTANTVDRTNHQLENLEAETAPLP
pKi: −log10 of the molar value.
observable: pKi

CC(C)C[C@H](NC(=O)[C@H](Cc1ccccc1)NC(=O)CNC(=O)CNC(=O)[C@@H](N)Cc1ccc(O)cc1)C(=O)N[C@@H](CCCN=C(N)N)C(=O)N[C@@H](CCCN=C(N)N)C(=O)N[C@H](Cc1c[nH]c2ccccc12)C(=O)N[C@@H](CCCN=C(N)N)C(=O)N1CCC[C@@H]1C(=O)N[C@@H](CCCCN)C(=O)O :: 9.24
CC(C)C[C@H](NC(=O)[C@H](Cc1ccccc1)NC(=O)CNC(=O)[C@@H](Cc1c[nH]c2ccccc12)NC(=O)[C@@H](N)Cc1ccc(O)cc1)C(=O)N[C@@H](CCCN=C(N)N)C(=O)N[C@@H](CCCN=C(N)N)C(=O)N[C@H](Cc1c[nH]c2ccccc12)C(=O)N[C@@H](CCCN=C(N)N)C(=O)N1CCC[C@@H]1C(=O)N[C@@H](CCCCN)C(=O)O :: 6.99
CC(C)C[C@H](NC(=O)[C@H](Cc1ccccc1)NC(=O)[C@@H](Cc1c[nH]c2ccccc12)NC(=O)CNC(=O)[C@@H](N)Cc1ccc(O)cc1)C(=O)N[C@@H](CCCN=C(N)N)C(=O)N[C@@H](CCCN=C(N)N)C(=O)N[C@H](Cc1c[nH]c2ccccc12)C(=O)N[C@@H](CCCN=C(N)N)C(=O)N1CCC[C@@H]1C(=O)N[C@@H](CCCCN)C(=O)O :: 6.49
